Tested on: Vesicular stomatitis virus
Assay: Antiviral activity against Vesicular stomatitis virus Indiana infected in A549 cells assessed as reduction in virus titer preincubated for 24 hrs followed by viral infection and measured after 72 hrs by microscopic analysis
Type: functional, organism-based
Activity calls are given as the source filed them. The rule behind the calls is not given here.
Metric: Activity

// below: answered molecules
Smi	System name	Activity
C=C(C)[C@@H]1CC[C@]2(COC(=O)/C=C(\C)C(=O)N3CCCCC3)CC[C@]3(C)[C@H](CC[C@@H]4[C@@]5(C)CC[C@H](O)C(C)(C)[C@@H]5CC[C@]43C)[C@@H]12	Vesicular stomatitis virus	inactive
C=C(C)[C@@H]1CC[C@]2(COC(=O)c3ccccc3C(=O)N3CCOCC3)CC[C@]3(C)[C@H](CC[C@@H]4[C@@]5(C)CC[C@H](O)C(C)(C)[C@@H]5CC[C@]43C)[C@@H]12	Vesicular stomatitis virus	inactive
C=C(C)[C@@H]1CC[C@]2(COC(=O)CCCC(=O)N3CCOCC3)CC[C@]3(C)[C@H](CC[C@@H]4[C@@]5(C)CC[C@H](O)C(C)(C)[C@@H]5CC[C@]43C)[C@@H]12	Vesicular stomatitis virus	inactive
C=C(C)[C@@H]1CC[C@]2(COC(=O)/C=C/C(=O)O)CC[C@]3(C)[C@H](CC[C@@H]4[C@@]5(C)CC[C@H](O)C(C)(C)[C@@H]5CC[C@]43C)[C@@H]12	Vesicular stomatitis virus	inactive

Now look at this entry.
Q. Would you kindly share the measured Activity for "C=C(C)[C@@H]1CC[C@]2(CO)CC[C@]3(C)[C@H](CC[C@@H]4[C@@]5(C)CC[C@H](O)C(C)(C)[C@@H]5CC[C@]43C)[C@@H]12" ?
A. inactive
